- Test system: myoglobin (Myo)
- Method Description: Intact protein MS photoaffinity labeling screen, myoglobin
- Type: binding
- Settings: intact protein MS after 10 min irradiation
Quantity Kind: MS labeling percentage, Myo (%)
Report the value in % with no unit label.

In one line, give reported MS labeling percentage, Myo of the entry CC1(CCC(=O)NCCN2CCN(c3ccc(C(F)(F)F)cn3)CC2)N=N1 [PhP096] .
0.1

Specify MS labeling percentage, Myo for COc1ccc(NS(=O)(=O)c2cccc(NC(=O)CCC3(C)N=N3)c2)cc1 [PhP087] and stop.
3.2

Check the records and state MS labeling percentage, Myo for CC1(CCC(=O)NCCNS(=O)(=O)c2cccc([N+](=O)[O-])c2)N=N1 [PhP035]
1.3

Quote MS labeling percentage, Myo reported for C[C@@H](NC(=O)CCC1(C)N=N1)[C@@H](O)c1cccc(O)c1 [PhP070] please.
0.1

Quickly give me recorded MS labeling percentage, Myo for CN1C(=O)COc2ccc(NC(=O)CCC3(C)N=N3)cc21 [PhP007]
0.1

----------
Quantity Kind: Kd (µM)
The reply should contain only the number, in µM.

Give Kd for CC1(CCC(=O)NCCc2csc(-c3ccccc3)n2)N=N1 [PhP097, N1=NC1(C)CCC(=O)NCCc2csc(n2)-c3ccccc3] tested on STAT5B NTD (Homo sapiens).
Sequence (P51692 1-123): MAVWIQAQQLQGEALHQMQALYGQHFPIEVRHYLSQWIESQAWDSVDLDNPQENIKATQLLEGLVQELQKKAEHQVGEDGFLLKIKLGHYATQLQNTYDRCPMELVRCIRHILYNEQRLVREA
18.1

----------
- Test system: carbonic anhydrase II (CA)
- Method Description: Intact protein MS photoaffinity labeling screen, carbonic anhydrase
- Type: binding
- Settings: intact protein MS after 10 min irradiation
Rule: MS labeling percentage, CA below 0.1% gives y, anything at or above gives n.

Decide: MS labeling percentage, CA of CC1(CCC(=O)NC2CCCC(NC(=O)OC(C)(C)C)C2)N=N1 (centres unmarked) strictly below 0.1%?
n

Field: below-cutoff. Rule: recorded MS labeling percentage, CA strictly less than 0.1%. Subject: CC1(CCC(=O)NCc2nc3ncccc3[nH]2)N=N1 [PhP053, N1=NC1(C)CCC(=O)NCc(n2)[nH]c(c23)cccn3]
n

Does this molecule meet the criterion MS labeling percentage, CA < 0.1%? `CC1(CCC(=O)NCc2ccccc2NS(C)(=O)=O)N=N1`
n

Please determine if CC1(CCC(=O)NCCCc2nc3ccccc3[nH]2)N=N1 [PhP069, N1=NC1(C)CCC(=O)NCCCc(n2)[nH]c(c23)cccc3] is below 0.1% in terms of MS labeling percentage, CA.
n

Below 0.1% on MS labeling percentage, CA? Entry `CC1(CCC(=O)Nc2nc(-c3c[nH]c(C(N)=O)c3)cs2)N=N1`
y

MS labeling percentage, CA under 0.1%? Item: `COc1ccc(-c2cnc(CNC(=O)CCC3(C)N=N3)[nH]2)cc1`
n

Decide: MS labeling percentage, CA of `CC1(CCC(=O)NCCc2csc(-c3ccccc3)n2)N=N1` strictly below 0.1%?
y

----------
- Test system: carbonic anhydrase II (CA)
- Method Description: Intact protein MS photoaffinity labeling screen, carbonic anhydrase
- Assay type: binding
- Settings: intact protein MS after 10 min irradiation
Values of MS labeling percentage, CA greater than or equal to 0.3% map to True; values below map to False.

Hi, just wondering whether CC1(CCC(=O)NCCN2CCN(c3ccc(C(F)(F)F)cn3)CC2)N=N1 [PhP096] shows MS labeling percentage, CA of 0.3% or higher.
False

// inclusive: MS labeling percentage, CA at least 0.3%? input: CC1(CCC(=O)NCc2ccc(-c3cncnc3)cc2)N=N1 [PhP052, N1=NC1(C)CCC(=O)NCc2ccc(cc2)-c3cncnc3]
True

Check the entry CC1(CCC(=O)N[C@@H](Cc2cccc(F)c2)CN2C(=O)c3ccccc3C2=O)N=N1 [PhP079] : does MS labeling percentage, CA equal or exceed 0.3%?
True

Could you please find out whether COc1ccc(-c2csc(CCNC(=O)CCC3(C)N=N3)n2)cc1 [PhP006] has MS labeling percentage, CA that meets 0.3% or exceeds it?
True

Check if MS labeling percentage, CA >= 0.3% (inclusive). Item: Cc1[nH]c2ccc(CNC(=O)CCC3(C)N=N3)cc2c1C [PhP004]
False

In plain terms: is recorded MS labeling percentage, CA at least 0.3% for CC1(CCC(=O)Nc2sc3c(c2C(N)=O)CCC(C(C)(C)C)C3)N=N1 (stereo not drawn) [PhP049] ?
False

----------
- System: myoglobin (Myo)
- Method Description: Intact protein MS photoaffinity labeling screen, myoglobin
- Assay type: binding
- Settings: intact protein MS after 10 min irradiation
Quantity Kind: MS labeling percentage, Myo
# output: numeric value plus its unit

Answer with reported MS labeling percentage, Myo of CCC(NC(=O)CCC1(C)N=N1)c1ccccc1OC (centres unmarked) [PhP032, N1=NC1(C)CCC(=O)NC(CC)c2ccccc2OC]
0.3%

Complete the entry with MS labeling percentage, Myo for CC1(CCC(=O)NC(CO)Cc2c[nH]c3ccccc23)N=N1 (centres unmarked) [PhP064]
0.3%

Return value of MS labeling percentage, Myo for input CC(C)CN1CCOC(CNC(=O)CCC2(C)N=N2)C1 (centres unmarked) [PhP046, CC(C)CN1CCOC(C1)CNC(=O)CCC2(C)N=N2] , no commentary.
0.3%

Look up and state reported MS labeling percentage, Myo for Cc1ncc(CO)c(CNC(=O)CCC2(C)N=N2)c1O [PhP072, Cc1ncc(CO)c(c1O)CNC(=O)CCC2(C)N=N2]
3.3%

Give the value of MS labeling percentage, Myo reported for the following: Cc1n[nH]c(C)c1CCNC(=O)CCC1(C)N=N1 [PhP061, Cc1n[nH]c(C)c1CCNC(=O)CCC2(C)N=N2]
0.2%

Let me know recorded MS labeling percentage, Myo for CC1(CCC(=O)NC(COCc2ccccc2)C(=O)OCc2ccccc2)N=N1 (centres unmarked) [PhP086] , thanks.
0.2%

Complete the entry with MS labeling percentage, Myo for COc1cc(C)nc(NC(=O)CCC2(C)N=N2)n1 [PhP074, COc1cc(C)nc(n1)NC(=O)CCC2(C)N=N2]
0.4%

Hello, please tell me recorded MS labeling percentage, Myo for this one: CC1(CCC(=O)NCCCn2ccnc2)N=N1 [PhP050, N1=NC1(C)CCC(=O)NCCCn2ccnc2]
0.2%

----------
- System: carbonic anhydrase II (CA)
- Method Description: Intact protein MS photoaffinity labeling screen, carbonic anhydrase
- Assay type: binding
- Settings: intact protein MS after 10 min irradiation
For each record, write down the corresponding MS labeling percentage, CA.
Please format your answer as a value with the unit trailing.

Look up and state reported MS labeling percentage, CA for `C[C@@H](NC(=O)CCC1(C)N=N1)[C@@H](O)c1cccc(O)c1`
0%

Name the recorded MS labeling percentage, CA of the item `CC1(CCC(=O)NCCCN2CCN(C(=O)OC(C)(C)C)CC2)N=N1` in your answer.
0.3%

Hello, please tell me recorded MS labeling percentage, CA for this one: `CC1(CCC(=O)NCc2ccc(N3CCC(CO)CC3)cc2)N=N1`
0%

Give me measured MS labeling percentage, CA, please, for this compound: `CC1(CCC(=O)NCCNS(=O)(=O)c2cccc([N+](=O)[O-])c2)N=N1`
1.8%

Give recorded MS labeling percentage, CA. `CC1(CCC(=O)NCc2ccc(-n3ccnc3)cc2)N=N1`
0.5%

# return recorded MS labeling percentage, CA for entry Cc1ccc(C(NC(=O)CCC2(C)N=N2)c2ccccn2)cc1 (centres unmarked)
0.4%

Look up MS labeling percentage, CA of CC1(CCC(=O)NCc2cc3ccccc3[nH]2)N=N1 [PhP040, N1=NC1(C)CCC(=O)NCc(c2)[nH]c(c23)cccc3] and report it.
0.7%

Please look at this compound and report its MS labeling percentage, CA: `CC1(CCC(=O)N[C@@H](Cc2ccc(O)cc2)C(N)=O)N=N1`
0%

----------
What MS labeling percentage, CA was measured for each of the following?
- System: carbonic anhydrase II (CA)
- Method Description: Intact protein MS photoaffinity labeling screen, carbonic anhydrase
- Type: binding
- Settings: intact protein MS after 10 min irradiation
Quick note: give the figure in %, leave out the unit.

Give reported MS labeling percentage, CA value for CC1(CCC(=O)NC(COCc2ccccc2)C(=O)OCc2ccccc2)N=N1 (centres unmarked) [PhP086]
0.4

Report MS labeling percentage, CA for Cn1ccnc1CCNC(=O)CCC1(C)N=N1 [PhP003, Cn1ccnc1CCNC(=O)CCC2(C)N=N2]
4.7

Please supply the value of reported MS labeling percentage, CA for the item CC1(CCC(=O)NCCc2c[nH]c3ccc(OCc4ccccc4)cc23)N=N1 [PhP081]
0

Read off the recorded MS labeling percentage, CA for Cc1c[nH]c(=O)n1-c1cccc(CNC(=O)CCC2(C)N=N2)c1 [PhP077]
0.1

Given the compound COC(=O)C(NC(=O)CCC1(C)N=N1)c1ccc(C)cc1 (centres unmarked) [PhP019, c1cc(C)ccc1C(C(=O)OC)NC(=O)CCC2(C)N=N2] , write its reported MS labeling percentage, CA.
0.2

Report measured MS labeling percentage, CA; entry is CC1(CCC(=O)NCc2c(O)ccc3ccccc23)N=N1 [PhP057, N1=NC1(C)CCC(=O)NCc(c(O)cc2)c(c23)cccc3]
0.4

Consider the compound CC1(CCC(=O)Nc2ccc3c(c2)NC(=O)CC3)N=N1 [PhP075, N1=NC1(C)CCC(=O)Nc(cc2)cc(c23)NC(=O)CC3] and give its recorded MS labeling percentage, CA.
0.2

Note down MS labeling percentage, CA recorded for Cc1cccc(-c2cnc(CNC(=O)CCC3(C)N=N3)[nH]2)c1 [PhP037]
0.9
